Tested on: NUGC3 cells (p53 Y220C)
Assay Text: Cell Proliferation Assay (CellTiter-Glo), NUGC3 p53 Y220C
Type: cell-based
Test Settings: Homo sapiens, NUGC-3, 120 h, 5 days, read-out: CTG NUGC3 P53 Y220C IC50
Recorded IC50, one value per entry.

{"Molecule": "CN1CC[C@@H](Nc2cccn3c(SC(F)(F)F)c(-c4noc(CNC(=O)c5sccc5OC(F)F)n4)cc23)[C@@H](F)C1", "Measured Parameter": "IC50", "Assay Result": "0.75 to 1.5 µM"}

Param item = CC(=O)NCc1nc(-c2cc3c(N[C@@H]4CCN(C)C[C@@H]4F)cccn3c2SC(F)(F)F)no1 ; retrieve measured IC50.
0.75 to 1.5 µM

Param item = CN1CC[C@@H](Nc2cccn3c(SC(F)(F)F)c(-c4noc(CNC(=O)c5cncs5)n4)cc23)[C@@H](F)C1 ; retrieve measured IC50.
< 0.75 µM

Param item = CN1CC[C@@H](Nc2cccn3c(SC(F)(F)F)c(-c4noc(CNC(=O)c5ccc6c(c5)C(C)(C)C(=O)N6)n4)cc23)[C@@H](F)C1 ; retrieve measured IC50.
< 0.75 µM

Param item = CN1CC[C@@H](Nc2cccn3c(SC(F)(F)F)c(-c4noc(CNC(=O)C56CC(NC(=O)OC(C)(C)C)(C5)C6)n4)cc23)[C@@H](F)C1 ; retrieve measured IC50.
1.5 to 3 µM

Param item = CN1CC[C@@H](Nc2cccn3c(SC(F)(F)F)c(-c4noc(CNC(=O)c5ccn(C6(C)CCOCC6)c5)n4)cc23)[C@@H](F)C1 ; retrieve measured IC50.
< 0.75 µM

Param item = CN1CC[C@@H](Nc2cccn3c(SC(F)(F)F)c(-c4noc(CNC(=O)C5CC5)n4)nc23)[C@@H](F)C1 ; retrieve measured IC50.
≥ 3 µM

Param item = CN1CC[C@@H](Nc2cccn3c(SC(F)(F)F)c(-c4nsc(CNC(=O)C5CC5)n4)cc23)[C@@H](F)C1 ; retrieve measured IC50.
≥ 3 µM

Param item = CN1CC[C@@H](Nc2cccn3c(SC(F)(F)F)c(-c4noc(CNC(=O)CC(C)(C)O)n4)cc23)[C@@H](F)C1 ; retrieve measured IC50.
≥ 3 µM

###

Target Or System: p53 Y220C mutant protein (amino acid residues 94-293) (Homo sapiens, UniProt P04637, Y220C)
Construct: p53 Y220C mutant protein (amino acid residues 94-293)
Assay Text: Surface Plasmon Resonance (SPR) assay, p53 Y220C Kd_kinetic
Test Settings: multi-cycle kinetics, 16 or 20 °C, pH 7.5, 1:1 binding model
Recorded Kd, one value per entry.

{"Substance Smiles": "CN1CC[C@@H](Nc2cccn3c(SC(F)(F)F)c(-c4noc(CNC(=O)COc5ccc(C#N)cc5)n4)cc23)[C@@H](F)C1", "Assay Result": "0.01 to 0.1 µM"}

Alright, here's another compound for you.
Param item = CN1CC[C@@H](Nc2cccn3c(SC(F)(F)F)c(-c4nsc(CNC(=O)C5CC5)n4)cc23)[C@@H](F)C1 ; retrieve measured Kd.
0.01 to 0.1 µM

###

Recorded pKd, one value per entry.
Target Or System: p53 Y220C mutant protein (amino acid residues 94-293) (Homo sapiens, UniProt P04637, Y220C)
Construct: p53 Y220C mutant protein (amino acid residues 94-293)
Assay Text: Surface Plasmon Resonance (SPR) assay, p53 Y220C Kd_kinetic
Test Settings: multi-cycle kinetics, 16 or 20 °C, pH 7.5, 1:1 binding model
pKd: −log10 of the molar value.

Examples with answers:
{"Molecule": "CC(C)C(=O)NCc1nc(-c2cc3c(N[C@@H]4CCN(C)C[C@@H]4F)cccn3c2SC(F)(F)F)no1 [Example 60]", "Assay Result": "7.00 to 8.00"}
{"Molecule": "CN1CC[C@@H](Nc2cccn3c(SC(F)(F)F)c(-c4noc(CNC(=O)C56CC(NC(=O)OC(C)(C)C)(C5)C6)n4)cc23)[C@@H](F)C1 [Example 45]", "Assay Result": "7.00 to 8.00"}
{"Molecule": "CN1CC[C@@H](Nc2cccn3c(SC(F)(F)F)c(-c4nsc(CNC(=O)c5ccn(C(C)(C)C)c5)n4)cc23)[C@@H](F)C1 [Example 6]", "Assay Result": "≤ 6.00"}
{"Molecule": "CN1CC[C@@H](Nc2cccn3c(SC(F)(F)F)c(-c4noc(CNC(=O)c5ccc6c(c5)CC(=O)N6)n4)cc23)[C@@H](F)C1 [Example 18]", "Assay Result": "> 8.00"}
{"Molecule": "CN1CC[C@@H](Nc2cccn3c(SC(F)(F)F)c(-c4noc([C@@H](CO)NC(=O)C5CC5)n4)cc23)[C@@H](F)C1 [Example 53]", "Assay Result": "7.00 to 8.00"}
{"Molecule": "CNC(=O)c1cccc(C(=O)NCc2nc(-c3cc4c(N[C@@H]5CCN(C)C[C@@H]5F)cccn4c3SC(F)(F)F)no2)c1 [Example 58]", "Assay Result": "> 8.00"}
{"Molecule": "CN1CC[C@@H](Nc2cccn3c(SC(F)(F)F)c(-c4noc(CNC(=O)c5ccc6[nH]cc(C#N)c6c5)n4)cc23)[C@@H](F)C1 [Example 19]", "Assay Result": "7.00 to 8.00"}
{"Molecule": "CN1CC[C@@H](Nc2cccn3c(SC(F)(F)F)c(-c4noc(CNC(=O)c5cncs5)n4)cc23)[C@@H](F)C1 [Example 70]", "Assay Result": "> 8.00"}
{"Molecule": "CN1CC[C@@H](Nc2cccn3c(SC(F)(F)F)c(-c4noc(CNC(=O)c5cnc(N(C)C)o5)n4)cc23)[C@@H](F)C1 [Example 12]", "Assay Result": "> 8.00"}
{"Molecule": "CN1CC[C@@H](Nc2cccn3c(SC(F)(F)F)c(-c4noc(CNC(=O)c5ccno5)n4)cc23)[C@@H](F)C1 [Example 76]", "Assay Result": "> 8.00"}

Alright, here's another molecule for you.
Param item = CN1CC[C@@H](Nc2cccn3c(SC(F)(F)F)c(-c4noc(CNC(=O)c5cnc(C(C)(C)C)o5)n4)cc23)[C@@H](F)C1 [Example 13] ; retrieve measured pKd.
> 8.00

###

Recorded IC50, one value per entry.
Test system: NUGC3 cells (p53 Y220C)
Assay Text: Cell Proliferation Assay (CellTiter-Glo), NUGC3 p53 Y220C
Format: cell-based
Test Settings: Homo sapiens, NUGC-3, 120 h, 5 days, read-out: CTG NUGC3 P53 Y220C IC50

Examples with answers:
{"Substance Smiles": "CN1CC[C@@H](Nc2cccn3c(SC(F)(F)F)c(-c4noc(CNC(=O)c5ccc6[nH]cc(C#N)c6c5)n4)cc23)[C@@H](F)C1", "Assay Result": "< 750 nM"}
{"Substance Smiles": "CN1CC[C@@H](Nc2cccn3c(SC(F)(F)F)c(-c4noc(CNC(=O)c5cnn(C)c5)n4)cc23)[C@@H](F)C1", "Assay Result": "< 750 nM"}

Alright, here's another compound for you.
Param item = CNC(=O)c1cnc(NCc2nc(-c3cc4c(N[C@@H]5CCN(C)C[C@@H]5F)cccn4c3SC(F)(F)F)no2)nc1 ; retrieve measured IC50.
750 to 1500 nM

###

Target Or System: p53 Y220C (Homo sapiens, UniProt P04637, Y220C)
Assay Text: Luciferase Reporter Assay, p53 Y220C (NCIH1299 cells with inducible p53 Y220C and p53 response element-luciferase)
Assay type: cell-based
Test Settings: 6 hour compound treatment, read-out: Luc P53 Y220C AC50
Measured Parameter: AC50

Examples with answers:
{"Substance Smiles": "CN1CC[C@@H](Nc2cccn3c(SC(F)(F)F)c(-c4noc(CNC(=O)C5CC(F)(F)C5)n4)cc23)[C@@H](F)C1", "Target Or System": "p53 Y220C (Homo sapiens, UniProt P04637, Y220C)", "Measured Parameter": "AC50", "Assay Result": "1500 to 3000 nM"}
{"Substance Smiles": "CN1CC[C@@H](Nc2cccn3c(SC(F)(F)F)c(-c4noc(CNC(=O)[C@@H]5COCCO5)n4)cc23)[C@@H](F)C1", "Target Or System": "p53 Y220C (Homo sapiens, UniProt P04637, Y220C)", "Measured Parameter": "AC50", "Assay Result": "750 to 1500 nM"}
{"Substance Smiles": "CN1CC[C@@H](Nc2cccn3c(SC(F)(F)F)c(-c4noc(CNC(=O)c5ccc6c(c5)CC(=O)N6)n4)cc23)[C@@H](F)C1", "Target Or System": "p53 Y220C (Homo sapiens, UniProt P04637, Y220C)", "Measured Parameter": "AC50", "Assay Result": "750 to 1500 nM"}
{"Substance Smiles": "CN1CC[C@@H](Nc2cccn3c(SC(F)(F)F)c(-c4noc(CNC(=O)C5(C(F)(F)F)CC5)n4)cc23)[C@@H](F)C1", "Target Or System": "p53 Y220C (Homo sapiens, UniProt P04637, Y220C)", "Measured Parameter": "AC50", "Assay Result": "≥ 3000 nM"}
{"Substance Smiles": "CN1CC[C@@H](Nc2cccn3c(SC(F)(F)F)c(-c4nsc(CNC(=O)C5CC5)n4)cc23)[C@@H](F)C1", "Target Or System": "p53 Y220C (Homo sapiens, UniProt P04637, Y220C)", "Measured Parameter": "AC50", "Assay Result": "≥ 3000 nM"}

Param item = CN1CC[C@@H](Nc2cccn3c(SC(F)(F)F)c(-c4noc(CNC(=O)C5(O)CC5)n4)cc23)[C@@H](F)C1 ; retrieve measured AC50.
< 750 nM

Param item = CN1CC[C@@H](Nc2cccn3c(SC(F)(F)F)c(-c4noc(CNC(=O)c5sccc5F)n4)cc23)[C@@H](F)C1 ; retrieve measured AC50.
< 750 nM

Data origin, for the record: patent US20260347353A1
